# Test system: RARb:RXRa (NR concentration 270 nM, RXRa partner concentration 90 nM)
# assay-comment: PBM binding z-score (relative to random genomic background probes); higher = stronger binding; sequences stand for … in GC…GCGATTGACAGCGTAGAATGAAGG
Reported PBM binding z-score values for a set of sequences
Lab note: jot down the number only; don't add units.

Consider the worked cases shown below.
TCTCGGGGGACACGAAGGTCAGAGCTTTCCAGAG = 3.73
CATAGCAGGCCAGGGTCACTCAAGCATTTCGCTT = 2.79
GCGACTGGGTCAAAGCAGGTTACCATAAGGTTGG = 3.19
CGAACGAGGTCAAGGACAGTGAATCTCCGCACGC = 5.24
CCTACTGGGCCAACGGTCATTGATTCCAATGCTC = 1.37

[in] Entry under review: CTCGAAAGGTCGTGCTCAGGTGAGAATACCAAAC . Reported PBM binding z-score?
[out] 3.93

[in] // lookup PBM binding z-score for TCTCGGAGGACACGAAAGGTCAAAGCTCGACATC
[out] 4.55

[in] Which value of PBM binding z-score has been reported for AGAACGAGAGCAATGAGTTGATAGCACGGGTGGC in the records?
[out] -0.525

[in] Data request, read-out PBM binding z-score, for CGAACGAGGGCATGAGTTCATAGCAAATGCCGAT
[out] 3.01

[in] // lookup PBM binding z-score for CGTCAAAGTTCAACTAAGGTAACGTAAAGCACGC
[out] 5.43

[in] Need PBM binding z-score, item TTGAGTAGGTTAGGGGCATTCAGAATGGCGTCGA
[out] 1.42

[in] Endpoint output: PBM binding z-score of ACTAGTTGGTTAGCTGAGGTCACACACAATTCGG . Value?
[out] 3.06

[in] What value of PBM binding z-score has been reported for the following sequence? CGTCCAAGGTCATGGTCAGTGAAAGAGACTCGAA
[out] 5.11

[in] What does the record list as PBM binding z-score for TCTTGTAGATCAAAGGTTAAGCAAGCCGAAGCCT ?
[out] 2.11

[in] Query (sequence): CCTTACGGGTCACTCCTGGTTATAGCATCGGAGT ; field requested: PBM binding z-score
[out] 3.55

###

Entries annotated with measured PBM binding z-score
# System: RARg:RXRa (NR concentration 270 nM, RXRa partner concentration 90 nM)
# assay-comment: PBM binding z-score (relative to random genomic background probes); higher = stronger binding; sequences stand for … in GC…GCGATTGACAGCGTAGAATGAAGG

ATATGTAGGTTAGTTGGGGTCATTCAGACTAGGC = 4.34
CGAACTAGGTCACGGACAGTGAATCTCCGCACGC = 5.11
GCTATTAGTTGAATGGGCAACCGAATGATTCTCG = -0.114

[in] Would you mind telling me what PBM binding z-score value was observed for ATACCAAGGTGATCGTGAGGACGTTGATACTAAC ?
[out] 0.635

[in] Find the recorded PBM binding z-score belonging to CCGACTGGGGCAGAAAGGTCACCATACCATCCGG and report it.
[out] 5.42

###

# System: LXRa homodimer (NR concentration 270 nM)
# assay-comment: PBM binding z-score (relative to random genomic background probes); higher = stronger binding; sequences stand for … in GC…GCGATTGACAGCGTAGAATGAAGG
Assign 1.0 to entries whose PBM binding z-score meets or exceeds -0.07; assign 0.0 to the rest.

Sample answers from the record:
CCTAGCAGGCCAATCTGGGTCACTCGAGGCTTGA = 0.0
TCGATTAGGTTAGGGGCATTCAGAATGGCGTCGA = 1.0
AGAACGAGGGCAATGAGCTGATAGCACGGGTGGC = 0.0
TCTTGTAGAACAATAGAGGTTAAGAAAGTGCGCT = 1.0
ATATGTAGGTTACATCCGGATCATTCAGGCTATG = 1.0
ATCTCTAGGTAGCCAAGTTCAGTGAATGCCGAAC = 1.0
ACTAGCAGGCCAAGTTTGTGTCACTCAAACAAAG = 0.0
GCTGCTAGGTCAGGTCGGTCAGCTAACGGGTACG = 1.0

[in] Please check the record CCAGTCAGGTGAGAAGGTAACTCAGCCTCGATTA and state if its PBM binding z-score is at or above -0.07.
[out] 0.0

[in] Please tell me: is the sequence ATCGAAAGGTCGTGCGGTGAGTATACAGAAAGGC at or over -0.07 in terms of PBM binding z-score?
[out] 1.0

[in] Tell me whether PBM binding z-score is at least -0.07 here: TTGCCTAGGTCATTCAGGGGCCAGTATAGAAAGC
[out] 1.0
